molecular target: TLR7 extracellular domain (Macaca mulatta, UniProt B3Y653, N167Q/N389Q/N488Q/N799Q, form not given); test: ITC titration to TLR7 recombinant protein; details: 1 mmol/L loxoribine into 50 μmol/L TLR7, absence of TH-407b
Sequence (B3Y653 27-839 N167Q/N389Q/N488Q/N799Q, form open): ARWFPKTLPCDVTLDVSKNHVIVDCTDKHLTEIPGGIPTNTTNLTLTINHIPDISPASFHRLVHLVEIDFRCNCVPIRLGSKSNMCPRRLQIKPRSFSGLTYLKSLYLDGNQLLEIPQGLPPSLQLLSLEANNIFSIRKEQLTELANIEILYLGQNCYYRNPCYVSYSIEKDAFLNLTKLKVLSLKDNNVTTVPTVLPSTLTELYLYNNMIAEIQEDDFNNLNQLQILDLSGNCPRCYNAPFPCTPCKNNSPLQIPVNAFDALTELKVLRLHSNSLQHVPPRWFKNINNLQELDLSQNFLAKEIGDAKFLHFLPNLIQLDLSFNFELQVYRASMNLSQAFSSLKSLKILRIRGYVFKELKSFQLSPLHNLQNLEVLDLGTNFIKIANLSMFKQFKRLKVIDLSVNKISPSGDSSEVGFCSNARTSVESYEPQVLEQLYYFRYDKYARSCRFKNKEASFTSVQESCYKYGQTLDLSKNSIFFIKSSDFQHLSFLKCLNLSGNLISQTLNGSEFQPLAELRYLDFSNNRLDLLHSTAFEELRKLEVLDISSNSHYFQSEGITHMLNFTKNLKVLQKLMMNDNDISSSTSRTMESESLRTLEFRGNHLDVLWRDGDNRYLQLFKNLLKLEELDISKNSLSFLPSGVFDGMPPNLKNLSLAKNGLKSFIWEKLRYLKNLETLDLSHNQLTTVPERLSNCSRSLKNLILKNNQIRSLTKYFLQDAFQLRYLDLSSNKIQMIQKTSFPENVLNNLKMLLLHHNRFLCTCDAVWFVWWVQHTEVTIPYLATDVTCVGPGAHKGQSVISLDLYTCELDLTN
measurement_type: pKd
Scale note: pKd = -log10(concentration in M).

Entry C=CCn1c(=O)n([C@@H]2O[C@H](CO)[C@@H](O)[C@H]2O)c2nc(N)[nH]c(=O)c21 [loxoribine] , pKd reported as 5.36

====

target: human TLR7 (Homo sapiens); test: SEAP reporter assay in HEK-Blue hTLR7 cells
Sequence (Q9NYK1 27-1049): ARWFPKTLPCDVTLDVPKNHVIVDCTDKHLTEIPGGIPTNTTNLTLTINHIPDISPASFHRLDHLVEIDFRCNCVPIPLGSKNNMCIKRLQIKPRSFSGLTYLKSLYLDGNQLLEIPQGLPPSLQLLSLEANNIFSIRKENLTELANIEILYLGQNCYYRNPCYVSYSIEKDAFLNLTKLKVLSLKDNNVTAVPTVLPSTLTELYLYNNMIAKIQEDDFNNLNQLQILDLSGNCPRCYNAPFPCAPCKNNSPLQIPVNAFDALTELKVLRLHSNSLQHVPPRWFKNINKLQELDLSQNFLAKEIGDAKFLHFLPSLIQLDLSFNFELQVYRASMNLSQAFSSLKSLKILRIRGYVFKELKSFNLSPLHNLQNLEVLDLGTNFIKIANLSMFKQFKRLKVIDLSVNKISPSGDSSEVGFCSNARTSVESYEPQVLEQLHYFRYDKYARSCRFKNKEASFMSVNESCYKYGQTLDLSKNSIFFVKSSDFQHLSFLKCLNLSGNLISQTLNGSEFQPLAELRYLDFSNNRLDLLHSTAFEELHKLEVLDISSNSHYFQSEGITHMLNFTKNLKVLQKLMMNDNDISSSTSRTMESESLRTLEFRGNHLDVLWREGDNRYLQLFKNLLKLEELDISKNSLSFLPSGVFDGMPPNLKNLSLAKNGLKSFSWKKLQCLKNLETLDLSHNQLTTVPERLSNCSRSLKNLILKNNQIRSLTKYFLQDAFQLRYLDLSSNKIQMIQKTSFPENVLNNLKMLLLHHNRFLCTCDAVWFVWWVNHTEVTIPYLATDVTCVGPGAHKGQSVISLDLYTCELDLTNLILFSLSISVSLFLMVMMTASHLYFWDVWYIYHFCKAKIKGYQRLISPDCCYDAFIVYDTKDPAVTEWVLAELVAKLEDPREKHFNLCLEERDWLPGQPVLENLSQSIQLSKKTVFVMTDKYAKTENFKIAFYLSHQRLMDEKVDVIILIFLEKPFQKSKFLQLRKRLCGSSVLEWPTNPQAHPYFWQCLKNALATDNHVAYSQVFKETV
pIC50: −log10 of the molar value.
Classification field: 1 = pIC50 at or over 6; -1 = pIC50 under 6.

Worked examples, 5 molecules total:
COc1ccccc1C(=O)N1CCN(c2ccc([N+](=O)[O-])c3ncccc23)CC1 [Compound S10]
-1
O=C(c1cccs1)N1CCN(c2ccc([N+](=O)[O-])c3ncccc23)CC1 [Compound S12]
-1
O=[N+]([O-])c1ccc(-c2ccc(O)cc2)c2cccnc12 [Compound S15]
1
COc1ccc(C(=O)N2CCN(c3ccc([N+](=O)[O-])c4ncccc34)CC2)c(OC)c1 [Compound S11]
1
O=C(c1ccncc1)N1CCN(c2ccc([N+](=O)[O-])c3ncccc23)CC1 [Compound S14]
-1

// switching to the query molecule
## Input Could you verify whether the entry COc1ccc(C(=O)N2CCN(c3ccc([N+](=O)[O-])c4ncccc34)CC2)cc1 [Compound S4] shows pIC50 of no less than 6?
## Output 1
